Attribution: the supplement of paper PMC6555819

For each entry below, report its PBM binding z-score value.
# Tested on: LXRb:RXRa (NR concentration 270 nM, RXRa partner concentration 90 nM)
# assay info: PBM binding z-score (relative to random genomic background probes); higher = stronger binding; sequences stand for … in GC…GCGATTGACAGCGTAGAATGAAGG
Answer with a number only.

Request: Please give measured PBM binding z-score of the following entry: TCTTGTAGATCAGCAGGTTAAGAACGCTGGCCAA
Result: 0.178

Request: Please give measured PBM binding z-score of the following entry: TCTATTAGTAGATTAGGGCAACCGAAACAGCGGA
Result: 0.176

Request: Please give measured PBM binding z-score of the following entry: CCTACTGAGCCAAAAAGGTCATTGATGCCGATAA
Result: 4.29

Request: Please give measured PBM binding z-score of the following entry: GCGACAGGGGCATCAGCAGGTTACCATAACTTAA
Result: 1.42

Request: Please give measured PBM binding z-score of the following entry: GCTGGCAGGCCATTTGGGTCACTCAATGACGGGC
Result: -0.156

Request: Please give measured PBM binding z-score of the following entry: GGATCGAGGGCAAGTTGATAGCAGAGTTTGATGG
Result: 0.122

Request: Please give measured PBM binding z-score of the following entry: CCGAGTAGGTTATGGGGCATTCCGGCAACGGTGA
Result: 0.574

Request: Please give measured PBM binding z-score of the following entry: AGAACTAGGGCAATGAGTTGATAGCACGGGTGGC
Result: -0.631

Request: Please give measured PBM binding z-score of the following entry: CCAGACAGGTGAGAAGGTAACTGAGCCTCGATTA
Result: -0.102

Request: Please give measured PBM binding z-score of the following entry: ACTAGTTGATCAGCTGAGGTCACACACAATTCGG
Result: 3.51

Request: Please give measured PBM binding z-score of the following entry: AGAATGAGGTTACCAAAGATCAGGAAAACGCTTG
Result: 3.66

Request: Please give measured PBM binding z-score of the following entry: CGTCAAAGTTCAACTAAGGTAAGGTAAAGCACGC
Result: 3.87
